IC50 reference
# System: cyclooxygenase
# protocol notes: resident murine peritoneal macrophage test, PGE2 (cyclooxygenase) by RIA
# Type: cell-based, mouse (female Swiss Webster)
# test parameters: 95% confidence limits given; mouse macrophages
readout label: IC50 (nM)

INSERT INTO results (molecule, recorded_measurement) VALUES
  ('CC(Cc1ccc(O)c(O)c1)C(C)Cc1ccc(O)c(O)c1 (centres unmarked) [NDGA, reference compound]', 2150),
  ('CCCCCC#CCC#CCC#CCC#CCCCC(=O)O [ETYA, reference compound]', 1260);
